B1: SMTNL2 (parent)
chain: QKNFELAFTMAENLANCERLIEVE

variants of: B1; test: protein stability index of a GFP-peptide fusion (GPS, HEK-293T) (PSI 1-6); higher = more stable; details: c terminus: a fixed tail appended;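 note: lentivirally expressed fusions sorted by FACS into six bins by GFP to DsRed ratio, PSI derived from sequencing read proportions per bin multiplied by bin number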
Response key: class 1 means protein stability index >= 3; class 0 means protein stability index < 3.

Req: Given `M10T` , state whether its protein stability index is at least 3.
Resp: class 1

Req: Given `A15H` , state whether its protein stability index is at least 3.
Resp: class 0

Req: Given `A11W` , state whether its protein stability index is at least 3.
Resp: class 0

Req: Given `E18L` , state whether its protein stability index is at least 3.
Resp: class 0

Req: Given `K2E` , state whether its protein stability index is at least 3.
Resp: class 0

Req: Given `V23W` , state whether its protein stability index is at least 3.
Resp: class 0

Req: Given `F4M` , state whether its protein stability index is at least 3.
Resp: class 0

Req: Given `L6I` , state whether its protein stability index is at least 3.
Resp: class 0

Req: Given `N13R` , state whether its protein stability index is at least 3.
Resp: class 0

Req: Given `L14V` , state whether its protein stability index is at least 3.
Resp: class 1

Req: Given `N3V` , state whether its protein stability index is at least 3.
Resp: class 1

Req: Given `F4V` , state whether its protein stability index is at least 3.
Resp: class 0

Req: Given `C17F` , state whether its protein stability index is at least 3.
Resp: class 0

Req: Given `C17D` , state whether its protein stability index is at least 3.
Resp: class 1

Req: Given `A11H` , state whether its protein stability index is at least 3.
Resp: class 1

Req: Given `E24L` , state whether its protein stability index is at least 3.
Resp: class 0

Req: Given `L20M` , state whether its protein stability index is at least 3.
Resp: class 0

Req: Given `A15E` , state whether its protein stability index is at least 3.
Resp: class 1

Req: Given `K2G` , state whether its protein stability index is at least 3.
Resp: class 0

Req: Given `N16I` , state whether its protein stability index is at least 3.
Resp: class 0

Req: Given `A7M` , state whether its protein stability index is at least 3.
Resp: class 0

Req: Given `L6K` , state whether its protein stability index is at least 3.
Resp: class 0

Req: Given `T9N` , state whether its protein stability index is at least 3.
Resp: class 0

Req: Given `L14H` , state whether its protein stability index is at least 3.
Resp: class 1

Req: Given `E5C` , state whether its protein stability index is at least 3.
Resp: class 0

Req: Given `N13G` , state whether its protein stability index is at least 3.
Resp: class 0

Req: Given `R19E` , state whether its protein stability index is at least 3.
Resp: class 1

Req: Given `V23Y` , state whether its protein stability index is at least 3.
Resp: class 1

Req: Given `N3W` , state whether its protein stability index is at least 3.
Resp: class 1

Req: Given `N13L` , state whether its protein stability index is at least 3.
Resp: class 0

Req: Given `E18Y` , state whether its protein stability index is at least 3.
Resp: class 1

Req: Given `R19S` , state whether its protein stability index is at least 3.
Resp: class 0

Req: Given `E12S` , state whether its protein stability index is at least 3.
Resp: class 1

Req: Given `E18T` , state whether its protein stability index is at least 3.
Resp: class 0

Req: Given `E5K` , state whether its protein stability index is at least 3.
Resp: class 0

Req: Given `E24K` , state whether its protein stability index is at least 3.
Resp: class 0

Req: Given `A15Q` , state whether its protein stability index is at least 3.
Resp: class 0

Req: Given `E18Q` , state whether its protein stability index is at least 3.
Resp: class 0

Req: Given `T9G` , state whether its protein stability index is at least 3.
Resp: class 0

Req: Given `E12V` , state whether its protein stability index is at least 3.
Resp: class 1

Req: Given `L14I` , state whether its protein stability index is at least 3.
Resp: class 0

Req: Given `I21S` , state whether its protein stability index is at least 3.
Resp: class 1

Req: Given `K2S` , state whether its protein stability index is at least 3.
Resp: class 0
